Biological target: full length recombinant Pim-1 protein (Homo sapiens)
Construct: by full length recombinant Pim-1, Pim-2, or Pim-3 protein; hexahistidine tag followed by a thrombin cleavage site (N); made in house; host or cells: Sf9 (baculovirus) or E. coli (pET28)
Test: Pim-1 enzyme assay (HTRF, phosphorylation of biotinylated-BAD (S112) peptide)
Format: biochemical
Details: read-out: Pim_1_IC50
Binary label based on IC50 with cut-off 9 nM: below gives satisfied, not below gives not satisfied.

Study these solved cases before continuing.
> print(dat)
                                   compound  category.label
1  O=c1cc(-c2n[nH]c3ccc(-c4c(F)cccc4F)cc23)nc(O[C@@H]2CCCNC2)[nH]1 [Example 529]       satisfied
2  NC1CCN(c2cc(O)nc(-c3c[nH]c4ccc(-c5c(F)cccc5F)cc34)n2)CC1 [Example 566]       satisfied
3  c1cnn(-c2cnc(-c3ccc4[nH]cc(-c5cncc(O[C@@H]6CCCNC6)n5)c4c3)cn2)c1 [Example 300]   not satisfied
4  c1cnc(N2CCOCC2)c(-c2ccc3[nH]cc(-c4cncc(O[C@@H]5CCCNC5)n4)c3c2)c1 [Example 338]   not satisfied

Lookup: Strictly below 9 nM in IC50? COC(=O)c1ccc2[nH]nc(-c3ccnc(O[C@@H]4CCCNC4)n3)c2c1 [Example 497]
Found: not satisfied

Lookup: Next compound up: CN(C)c1nc(-c2c[nH]c3ccc(-c4cncc(C5CC5)n4)cc23)cc(=O)[nH]1 [Example 527]
Found: not satisfied

Lookup: Next compound up: c1ncc(-c2ccc3[nH]cc(-c4cncc(O[C@@H]5CCCNC5)n4)c3c2)cc1NC1CC1 [Example 502]
Found: not satisfied

Lookup: Next compound up: N#Cc1ccccc1-c1ccc2[nH]cc(-c3cncc(O[C@@H]4CCCNC4)n3)c2c1 [Example 326]
Found: satisfied

Lookup: Next compound up: COc1cc(-c2ccc3[nH]cc(-c4cncc(O[C@@H]5CCCNC5)n4)c3c2)c(F)cn1 [Example 290]
Found: satisfied

====

Molecular target: full length recombinant Pim-1 protein (Homo sapiens, UniProt P11309)
Construct: by full length recombinant Pim-1, Pim-2, or Pim-3 protein; hexahistidine tag followed by a thrombin cleavage site (N); made in house; host or cells: Sf9 (baculovirus) or E. coli (pET28)
Sequence (P11309 whole entry): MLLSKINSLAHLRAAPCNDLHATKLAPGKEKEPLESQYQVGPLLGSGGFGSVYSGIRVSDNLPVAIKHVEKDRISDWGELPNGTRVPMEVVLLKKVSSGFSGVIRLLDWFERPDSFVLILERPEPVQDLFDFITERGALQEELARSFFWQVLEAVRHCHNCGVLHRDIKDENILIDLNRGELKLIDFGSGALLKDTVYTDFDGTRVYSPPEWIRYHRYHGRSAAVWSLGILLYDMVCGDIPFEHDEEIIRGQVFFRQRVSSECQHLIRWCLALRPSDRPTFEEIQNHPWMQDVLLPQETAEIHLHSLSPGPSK
Test: Pim-1 enzyme assay (HTRF, phosphorylation of biotinylated-BAD (S112) peptide)
Type: biochemical
Details: enzyme assay, Pim-1; read-out: Pim_1_IC50
MEASURED_METRIC: IC50
Phrase the answer as number then unit, nothing more needed.

Study these solved cases before continuing.
> print(dat)
                                   molecule  result
1  COc1cccc(-c2ccc3[nH]nc(-c4cncc(N5CCC(N)CC5)n4)c3c2)c1 [Example 77]    6 nM
2  CC(C)(C)C(=O)Nc1cccc(-c2ccc3[nH]nc(-c4cncc(N5CCC(N)CC5)n4)c3c2)n1 [Example 93]   13 nM
3  C[C@H]1CCNC[C@@H]1Oc1cncc(-c2n[nH]c3ccc(-c4c(F)cccc4F)cc23)n1 [Example 198]    4 nM
4  CC(C)Oc1cncc(-c2ccc3[nH]cc(-c4csc(-n5ccccc5=O)n4)c3c2)n1 [Example 227]  100 nM
5  NC1CCN(c2cncc(-c3n[nH]c4ccc(-c5ccncc5)cc34)n2)CC1 [Example 102]    2 nM
6  COC(=O)c1ccc2[nH]cc(-c3cncc(N4CCC(N)CC4)n3)c2c1 [Example 236]    5 nM
7  Fc1cccc(F)c1-c1ccc2[nH]cc(-c3nccc(O[C@@H]4CCCNC4)n3)c2c1 [Example 209]   36 nM
8  NC1CCN(c2cncc(-c3n[nH]c4ccc(-c5ccnc6cc(F)ccc56)cc34)n2)CC1 [Example 110]    8 nM

Consider now this further molecule.
Lookup: Which IC50 is listed for CC(C)Oc1cncc(-c2ccc3[nH]cc(-c4ccc(F)cn4)c3c2)n1 [Example 215] ?
Found: 1640 nM

====

Biological target: full length recombinant Pim-2 protein (Homo sapiens, UniProt Q9P1W9)
Construct: by full length recombinant Pim-1, Pim-2, or Pim-3 protein; hexahistidine tag followed by a thrombin cleavage site (N); made in house; host or cells: Sf9 (baculovirus) or E. coli (pET28)
Sequence (Q9P1W9 whole entry): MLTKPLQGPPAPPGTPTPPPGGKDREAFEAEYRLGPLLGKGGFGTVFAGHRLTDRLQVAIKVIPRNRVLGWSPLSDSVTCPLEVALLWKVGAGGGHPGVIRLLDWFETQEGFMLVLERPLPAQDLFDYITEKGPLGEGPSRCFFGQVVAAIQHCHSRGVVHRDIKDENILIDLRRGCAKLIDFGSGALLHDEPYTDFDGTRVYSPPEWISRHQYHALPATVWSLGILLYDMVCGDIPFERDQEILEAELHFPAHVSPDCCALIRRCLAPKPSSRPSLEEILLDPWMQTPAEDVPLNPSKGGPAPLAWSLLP
Assay: Pim-2 enzyme assay (HTRF, phosphorylation of biotinylated-BAD (S112) peptide)
Assay type: biochemical
Details: enzyme assay, Pim-2; read-out: Pim2_IC50
Reported pIC50 values follow for various compounds
Please report pIC50 as the negative decimal logarithm of the molar concentration, giving only the number.

> print(dat)
                                   compound  result.number
1  NC1CCN(c2cncc(-c3n[nH]c4ccc(-c5cccc(F)c5)cc34)n2)CC1           7.60
2  Fc1cccc(F)c1-c1ccc2[nH]nc(-c3cncc(OC4CCNC4)n3)c2c1 (stereo not drawn)           6.88
3  COc1cc(-c2ccc3[nH]nc(-c4cncc(N5CCC(N)CC5)n4)c3c2)c(F)cn1           7.74
4  NC1CCN(c2cncc(-c3n[nH]c4ccc(-c5ccc6nccnc6c5)cc34)n2)CC1           7.82

Consider now this further compound.
Lookup: Which pIC50 is listed for `c1cc(C2CC2)nc(-c2ccc3[nH]nc(-c4cncc(O[C@@H]5CCCNC5)n4)c3c2)n1` ?
Found: 7.17

====

Target: full length recombinant Pim-2 protein (Homo sapiens, UniProt Q9P1W9)
Construct: by full length recombinant Pim-1, Pim-2, or Pim-3 protein; hexahistidine tag followed by a thrombin cleavage site (N); made in house; host or cells: Sf9 (baculovirus) or E. coli (pET28)
Assay: Pim-2 enzyme assay (HTRF, phosphorylation of biotinylated-BAD (S112) peptide)
Format: biochemical
Details: read-out: Pim2_IC50
Reported IC50 values follow for various compounds

Study these solved cases before continuing.
> print(dat)
                                   compound  result
1  O=C(O)c1cccc(-c2ccc3[nH]cc(-c4cncc(O[C@@H]5CCCNC5)n4)c3c2)c1   46 nM
2  N#Cc1ccc2[nH]nc(-c3cncc(N[C@@H]4CCCNC4)n3)c2c1  396 nM
3  O=c1cc(-c2n[nH]c3ccc(-c4c(F)cccc4F)cc23)nc(N2CC[C@H](O)C2)[nH]1   58 nM
4  N#Cc1ccccc1-c1ccc2[nH]nc(-c3cncc(O[C@H]4CNCCC45CC5)n3)c2c1    1 nM

Consider now this further compound.
Lookup: Which IC50 is listed for `Fc1ccc(Cl)cc1-c1ccc2[nH]nc(-c3cncc(O[C@H]4CNCCC45CC5)n3)c2c1` ?
Found: 5 nM

====

Target: Pim-2 stably transfected into the U2OS human osteogenic sarcoma line (Homo sapiens, UniProt Q9P1W9)
Construct: expressed in transfected cells; host or cells: U2OS human osteogenic sarcoma line
Sequence (Q9P1W9 whole entry): as the sequence (Q9P1W9 whole entry) above
Experiment: Pim cell assay, phospho-BAD normalized against total BAD, U2OS stably transfected with Pim-2; also: high dose 31.6 µM
Type: cell-based
Details: U2OS cells stably transfected with Pim-2, phospho-BAD; high dose […]; read-out: Pim2_Cell_IC50
MEASURED_METRIC: IC50

Study these solved cases before continuing.
> print(dat)
                            chemical.smiles  measured.metric     result
1  CC(C)(C)C(=O)Nc1cccc(-c2ccc3[nH]nc(-c4cncc(N5CCC(N)CC5)n4)c3c2)n1             IC50  > 31.6 µM
2  COc1ccc(F)c(-c2ccc3[nH]nc(-c4cncc(N5CCC(N)CC5)n4)c3c2)c1             IC50  > 31.6 µM
3  NC1CCN(c2cncc(-c3n[nH]c4ccc(-c5cncnc5)cc34)n2)CC1             IC50  > 31.6 µM
4  COc1cccc(-c2ccc3[nH]nc(-c4cncc(N5CCC(N)CC5)n4)c3c2)c1F             IC50  > 31.6 µM
5  Cn1c(=O)cc(-c2ccc3[nH]nc(-c4cncc(N5CCC(N)CC5)n4)c3c2)c2ccccc21             IC50  > 31.6 µM

Lookup: Which IC50 is listed for `COc1cccc(-c2ccc3[nH]nc(-c4cncc(N5CCC(N)CC5)n4)c3c2)c1` ?
Found: > 31.6 µM

Lookup: Next compound up: `NC1CCN(c2cncc(-c3n[nH]c4ccc(-c5ccnc(N6CCOCC6)n5)cc34)n2)CC1`
Found: > 31.6 µM

Lookup: Next compound up: `Nc1cncc(-c2ccc3[nH]nc(-c4cncc(N5CCC(N)CC5)n4)c3c2)c1`
Found: > 31.6 µM

====

Reported pIC50 values follow for various molecules
Molecular target: Pim-1 stably transfected into the U2OS human osteogenic sarcoma line (Homo sapiens, UniProt P11309)
Construct: expressed in transfected cells; host or cells: U2OS human osteogenic sarcoma line
Assay: Pim cell assay, phospho-BAD normalized against total BAD, U2OS stably transfected with Pim-1
Type: cell-based
Conditions: U2OS cells stably transfected with Pim-1, phospho-BAD; high dose […]; read-out: Pim1_Cell_IC50
Please report pIC50 as the negative decimal logarithm of the molar concentration, giving only the number.

Study these solved cases before continuing.
> print(dat)
                                   molecule  result.number
1  CCN(CC)C(=O)c1ccc(F)c(-c2ccc3[nH]nc(-c4cncc(N5CCC(N)CC5)n4)c3c2)c1 [Example 46]           6.02
2  CCCCNC(=O)c1ccc(F)c(-c2ccc3[nH]nc(-c4cncc(N5CCC(N)CC5)n4)c3c2)c1 [Example 38]           5.92
3  Nc1cncc(-c2ccc3[nH]nc(-c4cncc(N5CCC(N)CC5)n4)c3c2)c1 [Example 73]           6.05

Consider now this further molecule.
Lookup: Which pIC50 is listed for O=C(NC1CC1)c1cncc(-c2ccc3[nH]nc(-c4cncc(O[C@@H]5CCCNC5)n4)c3c2)c1 [Example 159] ?
Found: 6.12
